tested on: MDR1-MDCK cell monolayers; test: Blood-brain-barrier (BBB) penetration potential via MDCK-MDR1 permeability assay; settings: A-B direction
PROPERTY: MDCK-MDR1: % Recov A-B (%)
Answers are plain numbers, in %.

Past entries and their recorded results:
CN(c1ccc(-c2cc3ncn(C)c(=O)c3cc2O)nn1)[C@H]1C[C@@H]2CC[C@@H](N2)[C@H]1F [Compound 51B] : 88
Cc1cnc(-c2ccc(-c3ccc(N(C)C4CC5CCC(N5)C4F)nn3)c(O)c2)o1 (single isomer, unassigned) [Compound 48B] : 67
CN(c1ccc(-c2cc3cccnc3cc2O)nn1)[C@H]1C[C@@H]2CC[C@@H](N2)[C@H]1F [Compound 74B] : 77
CN(c1ccc(-c2ccc(-c3cc[nH]n3)cc2O)nn1)[C@@H]1C[C@H]2CC[C@H](N2)[C@@H]1F (single isomer, unassigned) [Compound 33A] : 95
CN(c1ccc(-c2cc3oc(=O)n(C)c3cc2O)nn1)[C@@H]1C[C@H]2CC[C@H](N2)[C@@H]1F (single isomer, unassigned) [Compound 79A] : 89
Cn1cnc2cc(-c3ccc(N(C4CC4)[C@H]4C[C@@H]5CC[C@@H](N5)[C@H]4F)nn3)c(O)cc2c1=O [Compound 56B] : 96
CN(c1ccc(-c2cc3nccnc3cc2O)nn1)[C@@H]1C[C@H]2CC[C@H](N2)[C@@H]1F [Compound 88A] : 85
CN(c1ccc(-c2cc3ncn(CC(F)(F)F)c(=O)c3cc2O)nn1)[C@@H]1C[C@H]2CC[C@H](N2)[C@@H]1F [Compound 81A] : 100

Could you tell me MDCK-MDR1: % Recov A-B for each of these molecules? They are listed below.
1. CC(=O)N(C)c1ccc(-c2ccc(N(C)[C@H]3C[C@@H]4CC[C@@H](N4)[C@H]3F)nn2)c(O)c1 [Compound 35B]
2. CN(c1ccc(-c2cc3ccncc3cc2O)nn1)[C@H]1C[C@@H]2CC[C@@H](N2)[C@H]1F (single isomer, unassigned) [Compound 87B]
3. CN(c1ccc(-c2ccc(-c3cnccn3)cc2O)nn1)[C@H]1C[C@@H]2CCC[C@@H](N2)[C@H]1F [Compound 24B]
4. CN(c1ccc(-c2cc3cncnc3cc2O)nn1)[C@@H]1C[C@H]2CC[C@H](N2)[C@@H]1F [Compound 75A]
5. CN(c1ccc(-c2ccc(-n3ccnc3)cc2O)nn1)[C@@H]1C[C@H]2CCC[C@H](N2)[C@@H]1F [Compound 11A]

Reply:
1. 103
2. 70
3. 73
4. 101
5. 79

* * *

Please respond with reported efflux ratio at 120 min, 5 μM for every item in the list.
system: MDR1; experiment: in vitro; settings: dog, MDCK-MDR1, pH 7.4
One number for each entry.

// known answers, use as guide
O=c1c2cc(O)c(-c3ccc(N(C4CC4)[C@H]4C[C@@H]5CC[C@@H](N5)[C@H]4F)nn3)cc2ncn1CC(F)(F)F (single isomer, unassigned) [Compound 60B] : 77
CN(C)C(=O)c1cc2cc(O)c(-c3ccc(N(C)[C@H]4C[C@@H]5CC[C@H]([C@H]4F)N5C)nn3)cc2o1 (single isomer, unassigned) [Compound 106B] : 35
CN(c1ccc(-c2ccc(Oc3nccn3C)cc2O)nn1)[C@H]1C[C@@H]2CC[C@@H](N2)[C@H]1F (single isomer, unassigned) [Compound 123B] : 89

# context switch: different molecule, same efflux ratio at 120 min, 5 μM
Task item: Data request, read-out efflux ratio at 120 min, 5 μM, for CN(c1ccc(-c2cc3ncn(CC(F)(F)F)c(=O)c3cc2O)nn1)[C@H]1C[C@@H]2CCC[C@H]([C@H]1F)N2C (single isomer, unassigned) [Compound 109B]
Reply: 26
